System: BT-474
test details: relative cell viability vs DMSO control (% of DMSO control); higher = less growth inhibition (higher viability)
run parameters: 0.1 µM; treatment time: 72 h
measured attribute: relative cell viability

molecule	measured attribute	result value
Cc1ccc(-n2nc(C(C)(C)C)cc2NC(=O)NCc2cc(F)ccc2Oc2ccc3c(cnn3CCO)c2)cc1	relative cell viability	118
COC(=O)[C@@]1(O)C[C@H]2O[C@]1(C)n1c3ccccc3c3c4c(c5c6ccccc6n2c5c31)C(=O)NC4 [K-252a]	relative cell viability	91.6
Cn1nccc1Nc1nccc(-c2ccn([C@H](CO)c3ccc(Cl)c(F)c3)c(=O)c2)n1	relative cell viability	94.3
Cc1nc(Nc2n[nH]c3c2CN(C(=O)N[C@H](CN(C)C)c2ccccc2)C3(C)C)c2sccc2n1	relative cell viability	86.5
Cn1c(=O)c(F)c(Nc2ccc(I)cc2F)c2c(=O)n(C[C@@H](O)CO)cnc21	relative cell viability	94.8
CN1CCN(c2nc(C3=C(c4c[nH]c5ccccc45)C(=O)NC3=O)c3ccccc3n2)CC1	relative cell viability	99.8
C[C@@H](NC(=O)c1ncnc(N)c1Cl)c1ncc(C(=O)Nc2cc(C(F)(F)F)c(Cl)cn2)s1	relative cell viability	95.8
COCCN1CCN(Cc2ccc(-c3n[nH]c4c3C(=O)c3c(NC(=O)NN5CCOCC5)cccc3-4)cc2)CC1	relative cell viability	64.5
C[C@]12O[C@H](C[C@]1(O)CO)n1c3ccccc3c3c4c(c5c6ccccc6n2c5c31)CNC4=O	relative cell viability	66.8
CNS(=O)(=O)Nc1nccc(Cc2c(C)c3ccc(Oc4ncccn4)cc3oc2=O)c1F	relative cell viability	94.9
CN[C@@H]1C[C@H]2O[C@@](C)([C@@H]1OC)n1c3ccccc3c3c4c(c5c6ccccc6n2c5c31)C(=O)N[C@H]4O	relative cell viability	85.9

====

Recorded measurements of relative cell viability, one per entry
Tested on: HCC1806
test details: relative cell viability vs DMSO control (% of DMSO control); higher = less growth inhibition (higher viability)
run parameters: 30 µM; treatment time: 72 h
measured attribute: relative cell viability

compound	system under test	result value
CNS(=O)(=O)Nc1nccc(Cc2c(C)c3ccc(Oc4ncccn4)cc3oc2=O)c1F	HCC1806	72.8
Cn1c(=O)c(F)c(Nc2ccc(I)cc2F)c2c(=O)n(C[C@@H](O)CO)cnc21 [TAK-733]	HCC1806	39.2
Cc1ccc(-n2nc(C(C)(C)C)cc2NC(=O)NCc2cc(F)ccc2Oc2ccc3c(cnn3CCO)c2)cc1 [Pexmetinib]	HCC1806	12.7
C[C@@H](NC(=O)c1ncnc(N)c1Cl)c1ncc(C(=O)Nc2cc(C(F)(F)F)c(Cl)cn2)s1 [MLN-2480]	HCC1806	68
